- target-of-assay: Cytochrome P450 2D6 (Homo sapiens) (UniProt P10635)
- Sequence (P10635 whole entry, looked up): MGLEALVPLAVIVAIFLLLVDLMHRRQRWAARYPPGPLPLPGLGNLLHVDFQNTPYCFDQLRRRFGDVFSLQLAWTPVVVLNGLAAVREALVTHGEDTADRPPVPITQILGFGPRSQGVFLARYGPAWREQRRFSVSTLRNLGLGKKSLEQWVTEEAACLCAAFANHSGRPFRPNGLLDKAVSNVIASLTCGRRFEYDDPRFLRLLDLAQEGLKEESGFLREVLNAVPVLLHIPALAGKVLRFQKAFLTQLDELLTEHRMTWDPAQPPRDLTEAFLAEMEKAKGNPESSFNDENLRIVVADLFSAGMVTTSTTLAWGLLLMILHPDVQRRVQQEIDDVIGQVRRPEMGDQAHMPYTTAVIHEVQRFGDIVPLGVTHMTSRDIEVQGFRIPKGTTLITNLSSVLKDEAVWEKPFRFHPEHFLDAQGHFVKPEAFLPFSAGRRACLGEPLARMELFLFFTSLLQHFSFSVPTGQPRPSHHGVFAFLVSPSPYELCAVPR
- experiment-notes: Cytochrome panel assay with activity outcomes
- measurement-context: recombinant CYP, pro-luciferin dealkylation, luminescence, p450-cyp2d6; series mostly up to 57.1 µM
About 2,600 (16%) of roughly 16,000 compounds were called active. Roughly 20% stayed inconclusive and do not appear here. Calls follow the shape of the dose curve; as a rule, active = well fitted curve in the direction sought with a large enough effect; inconclusive = small, poorly fitted or top-dose-only effect, or effect the other way; inactive = no such curve, though single readings can be large or run the other way. Only a sample is shown.
Please state which outcome applies, choosing from true (1) for active, false (0) for inactive

Query block: What is the recorded call for this compound in the test? COCC(=O)N1CCN(c2ccc([N+](=O)[O-])cc2)CC1
Result block: false (0)

Query block: Likewise for Brc1ccc2cccnc2c1 ?
Result block: false (0)

Query block: Likewise for Brc1ccc2ncnc(Nc3cccc4ccccc34)c2c1 ?
Result block: true (1)

Query block: Likewise for COc1cccc(NC(=O)CSc2nnc(CN3CCOCC3)n2C)c1 ?
Result block: false (0)

Query block: Likewise for COc1ccc(CNC(=O)/C=C/c2ccc(OCCCF)cc2)cc1 ?
Result block: false (0)

Query block: Likewise for CSc1nc(C)c(CCOC(=O)c2cccc(C)c2)c(=O)[nH]1 ?
Result block: false (0)

Query block: Likewise for CCOC(=O)Cc1csc(NC(=O)c2ccc(S(=O)(=O)N3CCCCC3)cc2)n1 ?
Result block: false (0)

Query block: Likewise for C/C(N)=C(/C#N)C(=O)COc1ncnc2ccc(Br)cc12 ?
Result block: false (0)

Query block: Likewise for O=C(O)CCC(=O)N1CCc2cc(S(=O)(=O)N3CCCCC3)ccc21 ?
Result block: false (0)

Query block: Likewise for CCOc1ccc(-n2ccnc2SCC(=O)Nc2nnc(CC)s2)cc1 ?
Result block: false (0)

Query block: Likewise for Nc1nc(Br)c2c(F)cccc2c1-c1ccc(F)cc1 ?
Result block: false (0)

Query block: Likewise for Cc1nnc(-c2cnn(-c3ccccc3)c2N)n1Cc1ccccc1 ?
Result block: false (0)
